The measurements presented in this section are drawn from patent US20110009403A1.

# TGT: PI3K p110α/p85 (Homo sapiens)
# METHOD NOTES: PI3K assay ([γ33P]ATP, PtdIns/PtdSer coated plates)
# PROTOCOL CONDITIONS: 2 μM ATP, 1 hour at RT; read-out: IC50 (PI3Kα)
pIC50: −log10 of the molar value.
Item-by-item account of pIC50

Sample answers from the record:
Fc1cccc(Cn2cnc3c(-c4ccc5[nH]ccc5c4)nc(N4CCOCC4)nc32)c1 [Compound 47] : < 5.30
CC(C)C(C)n1cnc2c(-c3ccc(N)nc3)nc(N3CCOCC3)nc21 (stereo not drawn) [Compound 136] : > 6.00
CC(C)n1cnc2c(-c3cccc4[nH]ccc34)nc(N3CCOCC3)nc21 [Compound 99] : > 6.00
CCCC(=O)N1CCC(n2cnc3c(-c4cccc5[nH]ccc45)nc(N4CCOCC4)nc32)CC1 [Compound 93] : > 6.00

Asked: Form field: pIC50 recorded for CS(=O)(=O)N1CCN(CCn2cnc3c(-c4cccc(O)c4)nc(N4CCOCC4)nc32)CC1 [Compound 108] with PI3K p110α/p85 (Homo sapiens) (enter value)
Given back: > 6.00

Asked: Form field: pIC50 recorded for Oc1cccc(-c2nc(N3CCOCC3)nc3c2ncn3C2CCOC2)c1 (stereo not drawn) [Compound 97] with PI3K p110α/p85 (Homo sapiens) (enter value)
Given back: > 6.00

Asked: Form field: pIC50 recorded for O=c1[nH]c2ccc(-c3nc(N4CCOCC4)nc4c3ncn4CC3CC3)cc2[nH]1 [Compound 65] with PI3K p110α/p85 (Homo sapiens) (enter value)
Given back: < 5.30

====

# TGT: PI3K p110α/p85 (Homo sapiens, UniProt P42336)
# Sequence (P42336 whole entry): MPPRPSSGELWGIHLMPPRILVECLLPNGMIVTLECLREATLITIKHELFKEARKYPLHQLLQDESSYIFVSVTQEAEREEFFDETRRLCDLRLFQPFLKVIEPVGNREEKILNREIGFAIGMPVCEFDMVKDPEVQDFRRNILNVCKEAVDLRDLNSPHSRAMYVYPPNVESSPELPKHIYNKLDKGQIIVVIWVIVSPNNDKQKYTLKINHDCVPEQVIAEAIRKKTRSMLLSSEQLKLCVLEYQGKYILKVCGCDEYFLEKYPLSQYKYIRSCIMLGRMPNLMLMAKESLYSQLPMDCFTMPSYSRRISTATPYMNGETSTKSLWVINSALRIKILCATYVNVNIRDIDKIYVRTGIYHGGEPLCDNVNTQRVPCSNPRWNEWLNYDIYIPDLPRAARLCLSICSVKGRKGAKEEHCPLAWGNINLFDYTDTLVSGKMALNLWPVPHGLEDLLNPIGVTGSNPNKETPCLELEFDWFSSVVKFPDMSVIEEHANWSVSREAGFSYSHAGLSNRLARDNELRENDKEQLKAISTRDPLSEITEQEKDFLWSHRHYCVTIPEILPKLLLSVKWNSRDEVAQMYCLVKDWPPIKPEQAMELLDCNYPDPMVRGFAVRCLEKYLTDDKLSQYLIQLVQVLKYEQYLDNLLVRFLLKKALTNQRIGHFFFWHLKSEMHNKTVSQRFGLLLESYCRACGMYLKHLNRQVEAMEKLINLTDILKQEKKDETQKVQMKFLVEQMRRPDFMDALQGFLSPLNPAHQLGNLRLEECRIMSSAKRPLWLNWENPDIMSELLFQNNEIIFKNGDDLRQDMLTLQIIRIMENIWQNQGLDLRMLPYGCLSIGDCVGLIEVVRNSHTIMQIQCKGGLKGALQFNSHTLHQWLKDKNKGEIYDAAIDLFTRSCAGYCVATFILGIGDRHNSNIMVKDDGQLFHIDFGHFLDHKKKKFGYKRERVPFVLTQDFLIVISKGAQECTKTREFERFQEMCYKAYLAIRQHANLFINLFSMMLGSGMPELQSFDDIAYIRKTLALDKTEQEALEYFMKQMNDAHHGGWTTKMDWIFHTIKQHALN
# Sequence (P27986 whole entry partner): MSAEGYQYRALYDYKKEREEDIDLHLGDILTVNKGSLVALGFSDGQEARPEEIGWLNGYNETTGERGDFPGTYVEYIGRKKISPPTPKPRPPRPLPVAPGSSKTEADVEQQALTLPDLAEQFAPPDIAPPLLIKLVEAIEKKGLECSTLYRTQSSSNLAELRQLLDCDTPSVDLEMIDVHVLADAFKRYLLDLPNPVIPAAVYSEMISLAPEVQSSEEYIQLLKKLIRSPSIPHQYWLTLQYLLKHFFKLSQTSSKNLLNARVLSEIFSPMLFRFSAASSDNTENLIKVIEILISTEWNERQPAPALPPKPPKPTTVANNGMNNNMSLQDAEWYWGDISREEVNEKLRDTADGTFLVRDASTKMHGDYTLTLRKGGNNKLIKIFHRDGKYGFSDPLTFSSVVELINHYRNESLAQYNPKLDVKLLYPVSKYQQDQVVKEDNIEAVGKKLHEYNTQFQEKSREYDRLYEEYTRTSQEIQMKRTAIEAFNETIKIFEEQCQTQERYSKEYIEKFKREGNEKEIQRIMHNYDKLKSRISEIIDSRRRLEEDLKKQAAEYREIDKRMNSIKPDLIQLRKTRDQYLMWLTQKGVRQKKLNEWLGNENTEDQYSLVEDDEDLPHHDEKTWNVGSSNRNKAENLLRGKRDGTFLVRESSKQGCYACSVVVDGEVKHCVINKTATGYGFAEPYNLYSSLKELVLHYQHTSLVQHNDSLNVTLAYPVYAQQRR
# METHOD NOTES: PI3K assay ([γ33P]ATP, PtdIns/PtdSer coated plates)
# PROTOCOL CONDITIONS: 2 μM ATP, 1 hour at RT; read-out: IC50 (PI3Kα)
pIC50: −log10 of the molar value.
ASSAY READOUT: pIC50

N#Cc1cccc(Cn2cnc3c(-c4cccc(O)c4)nc(N4CCOCC4)nc32)c1 : > 6.00
Oc1cccc(-c2nc(N3CCOCC3)nc3c2ncn3CCN2CCCC2)c1 : > 6.00

Asked: Consider the molecule shown here: CCSc1nc2c(-c3cccc(O)c3)nc(N3CCOCC3)nc2n1C(C)CC (stereo not shown) What is its recorded pIC50?
Given back: > 6.00

====

Recorded below: IC50, system mTOR (Homo sapiens, UniProt P42345).

O=C(Cn1cnc2c(-c3cccc(O)c3)nc(N3CCOCC3)nc21)Nc1ccccc1 : < 1000 nM
COCC(C)n1cnc2c(-c3ccc(N)nc3)nc(N3CCOCC3)nc21 (stereo not shown) : < 1000 nM
CC(C)n1cnc2c(-c3ccc(N)nc3)nc(N3CCOCC3)nc21 : < 1000 nM

Asked: Consider the compound shown here: CCC(C)n1c(N2CCCC2)nc2c(-c3cccc(O)c3)nc(N3CCOCC3)nc21 (stereo not shown) What is its recorded IC50?
Given back: < 1000 nM

Asked: Consider the compound shown here: CC(C)C(C)n1cnc2c(-c3cccc4[nH]ccc34)nc(N3CCOCC3)nc21 (stereo not shown) What is its recorded IC50?
Given back: < 1000 nM

====

# TGT: mTOR (Homo sapiens, UniProt P42345)
# Sequence (P42345 1382-2549 limits assumed): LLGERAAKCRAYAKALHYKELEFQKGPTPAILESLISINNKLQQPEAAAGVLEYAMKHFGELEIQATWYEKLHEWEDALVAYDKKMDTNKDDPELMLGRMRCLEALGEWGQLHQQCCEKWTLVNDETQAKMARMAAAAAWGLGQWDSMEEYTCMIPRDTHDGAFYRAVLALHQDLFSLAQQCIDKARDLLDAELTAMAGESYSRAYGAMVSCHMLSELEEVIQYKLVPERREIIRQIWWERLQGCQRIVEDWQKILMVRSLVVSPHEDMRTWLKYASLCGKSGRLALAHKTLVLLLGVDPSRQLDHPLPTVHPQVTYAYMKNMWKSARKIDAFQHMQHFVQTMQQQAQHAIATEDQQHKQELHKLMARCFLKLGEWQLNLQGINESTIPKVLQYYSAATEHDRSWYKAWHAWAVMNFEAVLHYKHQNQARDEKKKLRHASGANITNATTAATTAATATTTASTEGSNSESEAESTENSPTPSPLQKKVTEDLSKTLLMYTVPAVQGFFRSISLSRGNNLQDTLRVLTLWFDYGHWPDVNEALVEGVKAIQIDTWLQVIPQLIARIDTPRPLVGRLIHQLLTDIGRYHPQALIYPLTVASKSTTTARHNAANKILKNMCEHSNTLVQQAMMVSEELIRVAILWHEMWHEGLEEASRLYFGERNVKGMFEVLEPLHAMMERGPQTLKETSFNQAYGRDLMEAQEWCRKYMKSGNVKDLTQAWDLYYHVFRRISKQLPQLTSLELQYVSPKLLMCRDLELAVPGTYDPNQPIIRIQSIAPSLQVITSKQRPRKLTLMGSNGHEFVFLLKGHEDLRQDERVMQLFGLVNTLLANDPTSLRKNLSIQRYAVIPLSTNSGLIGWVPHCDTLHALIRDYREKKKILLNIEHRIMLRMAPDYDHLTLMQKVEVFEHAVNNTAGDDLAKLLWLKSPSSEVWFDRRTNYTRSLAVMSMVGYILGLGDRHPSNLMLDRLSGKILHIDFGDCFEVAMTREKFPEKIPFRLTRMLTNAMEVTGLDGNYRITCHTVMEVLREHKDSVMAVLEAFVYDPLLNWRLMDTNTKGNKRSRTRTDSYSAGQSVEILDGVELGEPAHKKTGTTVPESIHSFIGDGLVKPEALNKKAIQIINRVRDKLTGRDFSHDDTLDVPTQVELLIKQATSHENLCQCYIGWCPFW
# METHOD NOTES: mTOR assay (phosphorylation of 4eBP1, [γ33P]-ATP filter plate)
# Format: biochemical
# PROTOCOL CONDITIONS: 10 μM ATP, 1 hour at room temperature
Item-by-item account of IC50

CCc1nc2c(-c3cccc(O)c3)nc(N3CCOCC3)nc2n1C(C)CC (stereo not shown) : < 1 µM
Oc1cccc(-c2nc(N3CCOCC3)nc3c2ncn3Cc2cccc(F)c2)c1 : < 1 µM
c1cc(-c2nc(N3CCOCC3)nc3c2ncn3C2CCCC2)c2cc[nH]c2c1 : < 1 µM
CS(=O)(=O)Nc1cccc(-c2nc(N3CCOCC3)nc3c2ncn3Cc2ccccc2)c1 : > 5 µM
CCC(CC)n1cnc2c(-c3ccc(N)nc3)nc(N3CCOCC3)nc21 : < 1 µM

Asked: Form field: IC50 recorded for CC(C1CC1)n1cnc2c(-c3cccc(O)c3)nc(N3CCOCC3)nc21 (stereo not shown) with mTOR (Homo sapiens, UniProt P42345) (enter value)
Given back: < 1 µM

Asked: Form field: IC50 recorded for O=c1[nH]c2ccc(-c3nc(N4CCOCC4)nc4c3ncn4Cc3ccccc3)cc2[nH]1 with mTOR (Homo sapiens, UniProt P42345) (enter value)
Given back: > 5 µM
